Origin of values: ChEMBL document CHEMBL4715896

- METHOD_SUMMARY: Selectivity index, ratio of GI50 for cytotoxicity against mouse NIH/3T3 cells to GI50 for human HT-29 cells
- Type: toxicity, cell-based
- EXPERIMENTAL_CONTEXT: NIH/3T3 cells and HT-29 cells, read-out: RatioGI50
Please provide measured selectivity ratio for the entries that follow.
One number for each entry.

MOLECULE: O=C1C=C[C@@H]2[C@H](c3ccccc3)[C@@H](c3cccc(=O)o3)[C@]2(/C=C/c2ccccc2)O1
RESULT_NUMBER: 2.26
--
MOLECULE: O=c1cccc([C@H]2[C@H](c3ccccc3)[C@H](c3cccc(=O)o3)[C@H]2c2ccccc2)o1
RESULT_NUMBER: 5.67

Please give the measured selectivity ratio for this compound: O=c1cccc(/C=C/c2ccccc2)o1
8.73
